Measured pEC50 by item
# assay target: human iNOS (Homo sapiens)
# Sequence (P35228 whole entry): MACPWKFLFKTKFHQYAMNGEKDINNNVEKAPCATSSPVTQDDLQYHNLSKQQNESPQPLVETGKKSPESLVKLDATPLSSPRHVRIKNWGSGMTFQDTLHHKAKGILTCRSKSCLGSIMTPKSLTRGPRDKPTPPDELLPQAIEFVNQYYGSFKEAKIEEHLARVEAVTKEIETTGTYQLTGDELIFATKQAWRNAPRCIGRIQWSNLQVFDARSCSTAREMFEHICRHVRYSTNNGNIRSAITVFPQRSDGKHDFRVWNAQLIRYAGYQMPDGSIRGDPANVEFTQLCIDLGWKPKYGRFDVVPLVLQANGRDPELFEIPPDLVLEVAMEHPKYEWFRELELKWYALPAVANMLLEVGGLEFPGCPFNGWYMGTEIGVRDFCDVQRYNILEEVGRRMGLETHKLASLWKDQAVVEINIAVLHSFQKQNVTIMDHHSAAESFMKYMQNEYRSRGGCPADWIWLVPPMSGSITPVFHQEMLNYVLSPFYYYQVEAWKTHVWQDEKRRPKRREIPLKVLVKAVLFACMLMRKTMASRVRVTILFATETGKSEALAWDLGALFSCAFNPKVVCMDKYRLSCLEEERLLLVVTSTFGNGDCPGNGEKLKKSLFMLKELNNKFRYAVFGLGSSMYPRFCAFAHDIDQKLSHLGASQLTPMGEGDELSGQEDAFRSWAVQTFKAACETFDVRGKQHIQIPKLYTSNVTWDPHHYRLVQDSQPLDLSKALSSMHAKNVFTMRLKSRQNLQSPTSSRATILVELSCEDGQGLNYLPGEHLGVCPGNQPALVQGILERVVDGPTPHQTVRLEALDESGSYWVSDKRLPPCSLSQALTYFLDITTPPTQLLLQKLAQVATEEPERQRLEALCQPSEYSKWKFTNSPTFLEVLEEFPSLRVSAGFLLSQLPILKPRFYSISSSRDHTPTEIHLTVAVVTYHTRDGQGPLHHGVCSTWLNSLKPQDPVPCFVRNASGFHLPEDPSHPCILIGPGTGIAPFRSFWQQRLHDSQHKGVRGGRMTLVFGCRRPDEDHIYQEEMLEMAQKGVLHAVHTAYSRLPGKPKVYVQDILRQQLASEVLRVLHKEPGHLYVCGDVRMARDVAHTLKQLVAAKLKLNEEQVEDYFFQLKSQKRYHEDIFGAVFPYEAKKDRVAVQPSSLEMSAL
# experiment description: DAN assay of nitric oxide production (hiNOS)
# protocol conditions: enzyme expressed in HEK293 cells transiently transfected with human iNOS
pEC50: −log10 of the molar value.

INSERT INTO results (compound, result) VALUES
  ('CC(C)(C)Cc1nc2ccccc2n1Cc1cc(=O)[nH]c2c(F)c(F)ccc12 [Example 237]', '< 5.30'),
  ('Cc1cccc2c(CN(C(=O)c3ccco3)c3ccccc3)cc(=O)[nH]c12 [Example 16]', '≥ 5.30'),
  ('Cc1ccc(N(Cc2cc(=O)[nH]c3ccccc23)C(=O)c2ccco2)cc1 [Example 11]', '≥ 5.30'),
  ('Cc1cccc(N(Cc2cc(=O)[nH]c3c(F)c(F)ccc23)C(=O)c2scnc2C)c1 [Example 94]', '≥ 5.30'),
  ('O=C(c1ccco1)N(Cc1cc(=O)[nH]c2ccccc12)c1cccc(Cl)c1 [Example 14]', '< 5.30'),
  ('CC(C)c1ncc(-c2ccccc2)n1Cc1cc(=O)[nH]c2c(F)c(F)ccc12 [Example 255]', '< 5.30');

Just so you know, measured pEC50 for O=c1cc(Cn2c(Cc3ccccc3)nc3ccccc32)c2ccc(F)c(F)c2[nH]1 [Example 214] came out at ≥ 5.30

Just so you know, measured pEC50 for Cc1ncsc1C(=O)N(Cc1cc(=O)[nH]c2c(F)c(F)ccc12)c1cc(F)cc(F)c1 [Example 178] came out at ≥ 5.30

Just so you know, measured pEC50 for O=c1cc(Cn2c(CN3CCOCC3)nc3ccccc32)c2ccc(F)c(F)c2[nH]1 [Example 194] came out at < 5.30
